Where do the numbers come from? From patent US4175081A.

- Test system: Turnip (TP)
- METHOD: Post-emergence herbicide test
- Format: in vivo, Brassica sp.
- CONDITION NOTES: Brassica rapa, post-emergence, 336 h; 8 lb/acre; two weeks after treatment
So basically: is pest or weed control at 8966.8 g/ha under 80%? Then true (1). Not under? Then false (0).

{"columns": ["SMILES REPR", "GROUP LABEL"],
 "data": [
  ["O=C(Nc1ccc(Cl)c(Cl)c1)Nc1nnc(C(F)(F)F)s1", "true (1)"],
  ["CNC(=O)Nc1nnc(C)s1", "true (1)"],
  ["CNC(=O)Nc1nnc(COC)s1", "true (1)"],
  ["CSc1nnc(N(C)C(=O)N(C)C)s1", "false (0)"],
  ["CCNC(=O)Nc1nnc(SC)s1", "true (1)"],
  ["CNC(=O)Nc1nnc(-c2ccc(Cl)cc2)s1", "true (1)"],
  ["CNC(=O)Nc1nnc(C(F)(F)F)s1", "false (0)"],
  ["CCc1nnc(NC(=O)N(C)C)s1", "false (0)"],
  ["O=C(Nc1ccccc1)Nc1nnc(C(F)(F)F)s1", "true (1)"],
  ["CNC(=O)Nc1nnc(OC)s1", "true (1)"],
  ["CCSCCSc1nnc(NC(=O)NC)s1", "false (0)"]
]}
